From: PubChem BioAssay (NCI)

Assay: NCI Yeast Anticancer Drug Screen. Data for the cln2 rad14 strain (AID 165);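 note: 0% = growth equal to vehicle treated cultures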
Settings: S. cerevisiae cln2 rad14 strain, at 50.0 µM
The panel holds about 79,000 compounds, 15% with a hit somewhere; the sample as a whole holds those more often. Calls of active or inactive are those of the source. Cut-off read from the data, not from the text of the source: active = growth inhibition above about 70%; inactive = the rest.
Outcome codes: T (active), F (inactive)

[
  {
    "compound": "O=c1oc(-c2ccc(Cl)c([N+](=O)[O-])c2)ns1",
    "answer label": "F"
  },
  {
    "compound": "O=C(Oc1c(Cl)cc(Cl)c(Cl)c1Cl)Oc1c(Cl)cc(Cl)c(Cl)c1Cl",
    "answer label": "F"
  },
  {
    "compound": "Cc1cc([N+](=O)[O-])c2nnnn2c1",
    "answer label": "F"
  },
  {
    "compound": "Cc1nc(C)c(C(=O)NNC(=O)C[N+](C)(C)C)cc1C(=O)NNC(=O)C[N+](C)(C)C",
    "answer label": "F"
  },
  {
    "compound": "CSC(=S)CC(O)[C@@H]1CC2c3ccccc3C1c1ccccc12 (some centres not stated)",
    "answer label": "T"
  },
  {
    "compound": "CCCCCNC(=O)c1ccc(Cl)c(Cl)c1",
    "answer label": "F"
  },
  {
    "compound": "CCCC(=S)N1CCOCC1",
    "answer label": "F"
  },
  {
    "compound": "O=C(O)CCC(c1ccccc1)(c1ccccc1)c1ccccc1",
    "answer label": "T"
  },
  {
    "compound": "CCOC(=O)/C(=C\\n1c(=O)sc2ccccc21)C(=O)c1ccccc1",
    "answer label": "F"
  },
  {
    "compound": "CSc1ccc(/C=C2\\CNC/C(=C\\c3ccc(SC)cc3)C2=O)cc1",
    "answer label": "F"
  },
  {
    "compound": "N=C(N)SCc1cc(Cl)cc(Cl)c1O",
    "answer label": "F"
  },
  {
    "compound": "CCOC(=O)C(Br)c1nc2ccccc2[nH]c1=O (configuration not stated)",
    "answer label": "F"
  }
]

###

Experiment: NCI Yeast Anticancer Drug Screen. Data for the sgs1 mgt1 strain (AID 161);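 note: 0% = growth of cultures given vehicle only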
Conditions: S. cerevisiae sgs1 mgt1 strain, at 50.0 µM
This is part of a sample that, as a whole, favours compounds with a hit. Of some 79,000 tested, about 15% had one in any assay. Active and inactive are the calls of the source. Cut-off read from the data, not from the text of the source: active = growth inhibition above about 70%; inactive = the rest.
Outcome codes: true (1) = active, false (0) = inactive

[
  {
    "compound": "Cc1cc2c(cc1S(=O)(=O)O)C1C(C3C2C2(Cl)C(Cl)=C(Cl)C3(Cl)C2(Cl)Cl)C2(Cl)C(Cl)=C(Cl)C1(Cl)C2(Cl)Cl (stereo not drawn)",
    "answer label": "true (1)"
  },
  {
    "compound": "Cc1cc(N(CCCOS(C)(=O)=O)CCCOS(C)(=O)=O)ccc1C=Nc1cc(Br)c(O)c(Br)c1",
    "answer label": "true (1)"
  },
  {
    "compound": "O=C(CC(=O)c1ccccc1)CC(=O)c1ccccc1",
    "answer label": "true (1)"
  },
  {
    "compound": "O=C1C(Cl)=C(NCCC2CCCN3CCCCC23)C(=O)c2ccccc21 (stereo not drawn)",
    "answer label": "true (1)"
  },
  {
    "compound": "CCCCN(Cc1ccccc1)CC(O)c1cc2c(c3ccccc13)CCCC2 (stereo not drawn)",
    "answer label": "true (1)"
  },
  {
    "compound": "O=S(=O)(c1ccc2c(c1)CCCN2)N1CCC[C@H]2CCCC[C@@H]21",
    "answer label": "true (1)"
  },
  {
    "compound": "[Pt].c1ccc(P(CCP(CCP(c2ccccc2)c2ccccc2)CCP(c2ccccc2)c2ccccc2)c2ccccc2)cc1",
    "answer label": "true (1)"
  },
  {
    "compound": "O=C1c2cc(Br)cc(Br)c2NCCC1(Br)Br",
    "answer label": "true (1)"
  },
  {
    "compound": "O=[N+]([O-])/C=C/c1cc2ccccc2[nH]1",
    "answer label": "true (1)"
  },
  {
    "compound": "O=P1(O)c2ccccc2CS(=O)(=O)Cc2ccccc21",
    "answer label": "false (0)"
  },
  {
    "compound": "Cn1c(Sc2ccc(-c3cccnc3)n2C)ccc1-c1cccnc1",
    "answer label": "true (1)"
  },
  {
    "compound": "CCCCCN(CCCCC)CC(O)c1cccc2cc(Cl)ccc12 (stereo not drawn)",
    "answer label": "true (1)"
  },
  {
    "compound": "Cc1ccc2c(-c3ccccc3)c3ccccc3cc2c1C",
    "answer label": "false (0)"
  },
  {
    "compound": "CC(C)SC(=S)Nc1ccc(Cl)cc1",
    "answer label": "true (1)"
  },
  {
    "compound": "CC(=O)Oc1c2c(c(C)c3ccccc13)C(=O)c1cccnc1C2=O",
    "answer label": "true (1)"
  },
  {
    "compound": "C#CCN(N=O)C(=O)NCCCC(NC(C)=O)C(=O)NCc1ccccc1 (stereo not drawn)",
    "answer label": "false (0)"
  },
  {
    "compound": "O=S(=O)(CCCCl)SCCCCl",
    "answer label": "true (1)"
  },
  {
    "compound": "S=c1nc(/C=C/c2ccc(Cl)c(Cl)c2)[nH][nH]1",
    "answer label": "false (0)"
  },
  {
    "compound": "Cc1nc(-c2ccc(N=Cc3ccc(N(CCOS(C)(=O)=O)CCOS(C)(=O)=O)cc3)cc2)cs1",
    "answer label": "false (0)"
  },
  {
    "compound": "COc1ccc(CSC(=S)Nc2ccc(SC)c(Cl)c2)cc1",
    "answer label": "true (1)"
  },
  {
    "compound": "COc1ccc(NC2Oc3cc4c(cc3C(c3cccc(OC)c3OC)C2C)OCO4)cc1 (stereo not drawn)",
    "answer label": "false (0)"
  },
  {
    "compound": "Cc1nn(CCO)c(=O)c(C#N)c1C",
    "answer label": "false (0)"
  },
  {
    "compound": "O=C(Cl)c1ccc(N=Nc2ccccc2)cc1",
    "answer label": "false (0)"
  }
]
